Experiment: clinical
Conditions: human, in vivo, iv, t1/2
Categorize each record by its half-life using low: < 2 h; moderate: ≥ 2 h and < 10 h; high: ≥ 10 h

COMPOUND	CATEGORY
CC[C@]1(O)C[C@@H]2CN(CCc3c([nH]c4ccccc34)[C@@](C(=O)OC)(c3cc4c(cc3OC)N(C)[C@H]3[C@@](O)(C(N)=O)[C@H](O)[C@]5(CC)C=CCN6CC[C@]43[C@@H]65)C2)C1	high
CCN(CC)CCNC(=O)c1cc(Br)c(N)cc1OC [BROMOPRIDE]	moderate
CN(C)[C@@H]1C(O)=C(C(=O)NCN2CCCC2)C(=O)[C@@]2(O)C(O)=C3C(=O)c4c(O)cccc4[C@@](C)(O)[C@H]3C[C@@H]12	moderate
COc1cc2nc(N3CCN(C(=O)C4CCCO4)CC3)nc(N)c2cc1OC (centres undefined)	moderate
C[C@@H](O)[C@H]1C(=O)N2C(C(=O)O)=C(S[C@@H]3CN[C@H](C(=O)N(C)C)C3)[C@H](C)[C@H]12	low
COc1cc2c(cc1O)CCN[C@]21CS[C@@H]2c3c(OC(C)=O)c(C)c4c(c3[C@H](COC1=O)N1[C@@H]2[C@H]2c3c(cc(C)c(OC)c3O)C[C@@H]([C@@H]1O)N2C)OCO4	high
CN1CC[C@]23c4c5ccc(O)c4O[C@H]2C(=O)CC[C@H]3[C@H]1C5 [HYDROMORPHONE]	moderate
CCCCc1nc(Cl)c(CO)n1Cc1ccc(-c2ccccc2-c2nn[nH]n2)cc1	low

* * *

Catalogue of clearance values
Assay: clinical
Conditions: human, in vivo, iv, CL

COMPOUND	clearance [mL/min/kg]
O=C1c2cccc3c2[C@H](CCC3)CN1[C@@H]1CN2CCC1CC2	2.6
C=C1CC[C@@]2(O)[C@H]3Cc4ccc(O)c5c4[C@@]2(CCN3CC2CC2)[C@H]1O5	15
Cc1ccccc1OCC(O)CNCCOc1ccc(C(N)=O)cc1 (stereo not given)	14
CN(C)[C@@H]1C(O)=C(C(N)=O)C(=O)[C@@]2(O)C(O)=C3C(=O)c4c(O)cccc4[C@@](C)(O)[C@H]3[C@H](O)[C@@H]12	2
c1ccc(C2(c3ccccc3)CC2C2=NCCN2)cc1 (stereo not given)	8.6
N[C@H](C(=O)O)[C@@H]1CC(Cl)=NO1	0.69
CC1(C)S[C@@H]2[C@H](/N=C/N3CCCCCC3)C(=O)N2[C@H]1C(=O)O	6.3
CC(=O)CCCCn1c(=O)c2c(ncn2C)n(C)c1=O	39
COc1cccc(OC)c1C(=O)N[C@@H]1C(=O)N2[C@@H]1SC(C)(C)[C@@H]2C(=O)O	6.6
CCCC[C@@H]1CC(=O)[C@]2(O)O[C@@H]3[C@@H](NC)[C@@H](O)[C@@H](NC)[C@H](O)[C@H]3O[C@@H]2O1	1.7
CN/C(=N/CCSCc1nc[nH]c1C)NC#N	8.1
CC[N+](C)(C)c1cccc(O)c1.[Br-] [EDROPHONIUM BROMIDE]	9.6
N[C@@H](C(=O)N[C@@H]1C(=O)N2C(C(=O)O)=C(CSc3c[nH]nn3)CS[C@H]12)c1ccc(O)cc1	3.3
COc1ccc(C[C@@H]2c3cc(OC)c(OC)cc3CC[N@+]2(C)CCC(=O)OCCCCCOC(=O)CC[N@@+]2(C)CCc3cc(OC)c(OC)cc3[C@H]2Cc2ccc(OC)c(OC)c2)cc1OC	5.4
CC[C@@H](CO)NCCN[C@@H](CC)CO	10
CN(C)c1cc(NC(=O)CNC(C)(C)C)c(O)c2c1C[C@H]1C[C@H]3[C@H](N(C)C)C(O)=C(C(N)=O)C(=O)[C@@]3(O)C(O)=C1C2=O	3.8
CCOC(=O)c1ncn2c1CN(C)C(=O)c1cc(F)ccc1-2	16
NCC[C@H](O)C(=O)N[C@@H]1C[C@H](N)[C@@H](O[C@H]2O[C@H](CN)[C@@H](O)[C@H](O)[C@H]2O)[C@H](O)[C@H]1O[C@H]1O[C@H](CO)[C@@H](O)[C@H](N)[C@H]1O	1.1
CN(C)CCCN1c2ccccc2CCc2ccc(Cl)cc21	8.2
NCCC(O)(P(=O)(O)O)P(=O)(O)O	2.5

* * *

Assay: clinical
Settings: human, in vivo, iv, CL
QUANTITY_KIND: clearance (L/h/kg)

COMPOUND	QUANTITY_KIND	REPORTED_MEASUREMENT
NC(=O)NO [HYDROXYUREA]	clearance	0.09
CC1COc2c(N3CCN(C)CC3)c(F)cc3c(=O)c(C(=O)O)cn1c23 (stereo not given) [OFLOXACIN]	clearance	0.15
CCCC(C)C1(CC)C(=O)NC(=S)NC1=O (stereo not given) [THIOPENTAL]	clearance	0.492
CC(C)c1nc(N(C)S(C)(=O)=O)nc(-c2ccc(F)cc2)c1/C=C/[C@@H](O)C[C@@H](O)CC(=O)O [ROSUVASTATIN]	clearance	0.66
CCCCC(=O)N(Cc1ccc(-c2ccccc2-c2nnn[nH]2)cc1)[C@H](C(=O)O)C(C)C	clearance	0.0294
CO/N=C(\C(=O)N[C@@H]1C(=O)N2C(C(=O)[O-])=C(C[n+]3cccc4c3CCC4)CS[C@H]12)c1csc(N)n1 [CEFPIROME]	clearance	0.114
CN[C@@H]1[C@H](O)[C@H](NC)[C@H]2O[C@@]3(O)C(=O)C[C@@H](C)O[C@H]3O[C@@H]2[C@H]1O [SPECTINOMYCIN]	clearance	0.0594
COc1ccc2c(c1)N(C[C@H](C)CN(C)C)c1ccccc1S2 [LEVOMEPROMAZINE]	clearance	0.594
Fc1ccc([C@@H]2CCNC[C@H]2COc2ccc3c(c2)OCO3)cc1 [PAROXETINE]	clearance	1.08
CCCC(=O)N1CCCN(c2nc(N)c3cc(OC)c(OC)cc3n2)CC1 [BUNAZOSIN]	clearance	0.288

* * *

Test: clinical
Settings: human, in vivo, iv, CL
QUANTITY_KIND: clearance (mL/min/kg)

COMPOUND	REPORTED_MEASUREMENT
COc1ccc(CC2c3cc(OC)c(OC)cc3CC[N+]2(C)CCC(=O)OCCCCCOC(=O)CC[N+]2(C)CCc3cc(OC)c(OC)cc3C2Cc2ccc(OC)c(OC)c2)cc1OC (configuration not stated)	5.7
C/C(=C\c1csc(C)n1)[C@@H]1C[C@@H]2O[C@]2(C)CCC[C@H](C)[C@H](O)[C@@H](C)C(=O)C(C)(C)[C@@H](O)CC(=O)N1 [IXABEPILONE]	10
CC=CC1=C(C(=O)O)N2C(=O)[C@@H](NC(=O)[C@H](N)c3ccc(O)cc3)[C@H]2SC1	2.9
C[C@@H]1C(=O)O[C@H]2[C@H](O)[C@@]34[C@H]5C[C@@H](C(C)(C)C)[C@]36[C@@H](OC(=O)[C@@H]6O)O[C@@]4(C(=O)O5)[C@@]12O [GINKOLIDE B]	2.3
COc1cc(CC2c3c(cc(OC)c(OC)c3OC)CC[N+]2(C)CCCOC(=O)CCC(=O)OCCC[N+]2(C)CCc3cc(OC)c(OC)c(OC)c3C2Cc2cc(OC)c(OC)c(OC)c2)cc(OC)c1OC (configuration not stated)	2.7
CO[C@@]1(NC(=O)C2SC(=C(C(N)=O)C(=O)O)S2)C(=O)N2C(C(=O)O)=C(CSc3nnnn3C)CS[C@@H]21 (some centres not stated)	0.42
C[C@H]1c2cccc(O)c2C(=O)C2=C(O)[C@]3(O)C(=O)C(C(N)=O)=C(O)[C@@H](N(C)C)[C@@H]3[C@@H](O)[C@@H]21.O	0.46
CNS(=O)(=O)CCc1ccc2[nH]cc(C3CCN(C)CC3)c2c1	6.6
O=P(O)(O)OC(Cn1cncn1)(Cn1cncn1)c1ccc(F)cc1F	1.3
NS(=O)(=O)c1cc(C2(O)NC(=O)c3ccccc32)ccc1Cl (configuration not stated)	1.5
O=C(O)Cn1c(=O)c(=O)[nH]c2cc([N+](=O)[O-])c(-n3ccnc3)cc21	5.3
CN1CCC[C@H]1c1cccnc1	18
